test: In vitro penetration rate through human skin, Franz cells; type: in vitro ADME
assay.metric: apparent flux (in vitro penetration rate) (μg/cm^2/h)
Give a bare numeral; the unit μg/cm^2/h is implied.

# count of solved cases: 3
{"compound": "CC(=O)N[C@@H](Cc1ccc(OC(C)=O)c(OC(C)=O)c1)C(=O)[O-].[Na+] [reference compound]", "numeric.result": 1}
{"compound": "CC(C)(Oc1ccc(C(=O)c2ccc(Cl)cc2)cc1)C(=O)OCCN1CCCCC1.Cl", "numeric.result": 590}
{"compound": "CC(C)(Oc1ccc(C(=O)c2ccc(Cl)cc2)cc1)C(=O)[O-].[Na+] [reference compound]", "numeric.result": 1}

Lookup: Record request: apparent flux (in vitro penetration rate) value, item Cc1ccc(C)c(OCCCC(C)(C)C(=O)OCC2CCCNC2)c1.Cl (stereo not drawn)
Found: 400

Lookup: Record request: apparent flux (in vitro penetration rate) value, item CCN(CC)CCCOC(=O)[C@@H](Cc1cc(I)c(Oc2cc(I)c(O)c(I)c2)c(I)c1)NC(C)=O.Cl
Found: 480

Lookup: Record request: apparent flux (in vitro penetration rate) value, item CCN(CC)CCOC(=O)[C@H](Cc1ccc(OC(C)=O)c(OC(C)=O)c1)NC(C)=O.Cl
Found: 550

---

Property: concentration in stomach; scope: individual compounds
assay: Distribution in organs of rats killed with CO2 (absence of general circulation); details: 5 hrs after 0.3 mmol/kg diethylaminoethyl acetylsalicylate HCl salt on back of killed rats;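 further: tissue concentration in nmol/g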
Give a bare numeral; the unit nmol/g is implied.

{"compound": "CCN(CC)CCOC(=O)c1ccccc1OC(C)=O.Cl [P-1]", "unit.symbol": "nmol/g", "numeric.result": 4.3}
{"compound": "O=C(O)c1ccccc1O [salicylic acid]", "unit.symbol": "nmol/g", "numeric.result": 25.1}
{"compound": "CC(=O)Oc1ccccc1C(=O)O [aspirin, acetylsalicylic acid, reference compound]", "unit.symbol": "nmol/g", "numeric.result": 4.7}

Now look at this one.
Lookup: Record request: concentration in stomach value, item CCN(CC)CCOc1ccccc1C(=O)O [diethylaminoethyl salicylic acid]
Found: 3.2

---

test system: Human colon cancer cells (LS174J); test: Human colon cancer xenograft in nude mice; settings: in vivo
assay.metric: Weight of mice at day 30
I only need the number, thanks.

{"compound": "CCN(CC)CCOC(=O)c1ccccc1OC(C)=O.Cl [P-1]", "assay.metric": "Weight of mice at day 30", "numeric.result": 23}
{"compound": "CC(C(=O)OCC1CCNCC1)c1cccc(Oc2ccccc2)c1.Cl (centres unmarked) [P-4]", "assay.metric": "Weight of mice at day 30", "numeric.result": 22}
{"compound": "Cl.Nc1c(CC(=O)OCCN2CCOCC2)cccc1C(=O)c1ccccc1 [P-16]", "assay.metric": "Weight of mice at day 30", "numeric.result": 23}
{"compound": "CCN(CC)CCOC(=O)c1ccccc1Nc1c(Cl)ccc(C)c1Cl.Cl [P-47]", "assay.metric": "Weight of mice at day 30", "numeric.result": 22}

Lookup: Record request: Weight of mice at day 30 value, item CC(C)Cc1ccc(C(C)C(=O)OCC2CCCNC2)cc1.Cl (centres unmarked) [P-5]
Found: 23

---

tested on: normal SD rats (SLAC/SD); test: Blood glucose in normal SD rats treated with HPCs of NSAIAs; type: in vivo; settings: 30 mg/kg transdermally once per day, no fasting
assay.metric: blood glucose, Average (Week 2-5) (mmol/L)
Give a bare numeral; the unit mmol/L is implied.

{"compound": "CCN(CC)CCOC(=O)c1ccccc1OC(=O)c1ccccc1O.Cl", "numeric.result": 5.6}
{"compound": "CC(=O)O.CCN(CC)CCOC(=O)c1ccccc1O [P-10, diethylaminoethyl salicylate.AcOH]", "numeric.result": 5.7}

Now look at this one.
Lookup: Record request: blood glucose, Average (Week 2-5) value, item CCN(CC)CCOC(=O)c1ccccc1OC(=O)c1ccccc1OC(=O)c1ccccc1OC(C)=O.Cl
Found: 5.7

---

test system: normal SD rats (SLAC/SD); assay: Blood glucose in normal SD rats treated with HPCs of NSAIAs; format: in vivo; settings: 30 mg/kg transdermally once per day, no fasting
assay.metric: blood glucose, Day 1 (mmol/L)
Give a bare numeral; the unit mmol/L is implied.

Lookup: Record request: blood glucose, Day 1 value, item CCN(CC)CCOC(=O)c1cc(NC(C)=O)ccc1OC(C)=O.Cl [P-58]
Found: 5.9

Lookup: Record request: blood glucose, Day 1 value, item CCN(CC)CCOC(=O)c1ccccc1OC(C)=O.Cl [P-1]
Found: 5.8

Lookup: Record request: blood glucose, Day 1 value, item CCN(CC)CCOC(=O)c1ccccc1OC(=O)c1ccccc1OC(=O)c1ccccc1OC(C)=O.Cl [P-60]
Found: 5.6

Lookup: Record request: blood glucose, Day 1 value, item CCN(CC)CCOC(=O)c1ccccc1OC(=O)c1ccccc1O.Cl [P-9]
Found: 5.5

Lookup: Record request: blood glucose, Day 1 value, item CC(=O)Nc1ccc(OC(=O)c2ccccc2OC(=O)CCCN(C)C)cc1.Cl [P-6]
Found: 5.7

Lookup: Record request: blood glucose, Day 1 value, item CC(=O)O.CCN(CC)CCOC(=O)c1ccccc1O [P-10, diethylaminoethyl salicylate.AcOH]
Found: 5.8

Lookup: Record request: blood glucose, Day 1 value, item CC(=O)Oc1ccc(-c2ccc(F)cc2F)cc1C(=O)O.CCN(CC)CCOC(=O)c1cc(-c2ccc(F)cc2F)ccc1OC(C)=O [P-8]
Found: 5.6

Lookup: Record request: blood glucose, Day 1 value, item CCN(CC)CCOC(=O)c1ccccc1OC(=O)c1ccccc1OC(C)=O.Cl [P-59]
Found: 5.7

---

test system: Human breast cancer cells (BCAP-37); assay: Human breast cancer xenograft in nude mice; details: in vivo
assay.metric: Weight of mice at day 42
I only need the number, thanks.

# count of solved cases: 7
{"molecule": "CCN(CC)CCOC(=O)C(C)c1ccc2c(c1)C(=O)Cc1cc(C)ccc1O2.Cl (centres unmarked)", "numeric.result": 23}
{"molecule": "CN(C)CCCC(=O)OC1=C(C(=O)Nc2ccccn2)N(C)S(=O)(=O)c2ccccc21.Cl", "numeric.result": 23}
{"molecule": "CC(C(=O)OCCCN1CCCC1)c1cccc(C(=O)c2ccccc2)c1.Cl (centres unmarked)", "numeric.result": 22}
{"molecule": "CC1=C(CC(=O)OCCN2CCOCC2)c2cc(F)ccc2/C1=C\\c1ccc([S+](C)[O-])cc1.Cl (centres unmarked)", "numeric.result": 23}
{"molecule": "CCN(CC)CCOC(=O)c1ccccc1OC(C)=O.Cl", "numeric.result": 24}
{"molecule": "CC(C(=O)OCC1CCNCC1)c1cccc(Oc2ccccc2)c1.Cl (centres unmarked)", "numeric.result": 23}
{"molecule": "CCN(CC)CCOC(=O)Cc1ccccc1Oc1ccc(Cl)cc1Cl.Cl", "numeric.result": 22}

Lookup: Record request: Weight of mice at day 42 value, item CC(C)Cc1ccc(C(C)C(=O)OCC2CCCNC2)cc1.Cl (centres unmarked)
Found: 23

---

test: Distribution in organs of rats killed with CO2 (absence of general circulation); conditions: 5 hrs after 0.3 mmol/kg diethylaminoethyl acetylsalicylate HCl salt on back of killed rats;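 further: tissue concentration in nmol/g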
assay.metric: concentration in liver (nmol/g)
Give a bare numeral; the unit nmol/g is implied.

# count of solved cases: 3
{"compound": "CCN(CC)CCOc1ccccc1C(=O)O", "unit.symbol": "nmol/g", "concentration in liver": 1.5}
{"compound": "CC(=O)Oc1ccccc1C(=O)O [aspirin, acetylsalicylic acid, reference compound]", "unit.symbol": "nmol/g", "concentration in liver": 2.1}
{"compound": "O=C(O)c1ccccc1O", "unit.symbol": "nmol/g", "concentration in liver": 12.2}

Now look at this one.
Lookup: Record request: concentration in liver value, item CCN(CC)CCOC(=O)c1ccccc1OC(C)=O.Cl
Found: 1.2

---

system: normal SD rats (SLAC/SD); experiment: Blood glucose in normal SD rats treated with HPCs of NSAIAs; assay type: in vivo; details: 30 mg/kg transdermally once per day, no fasting
assay.metric: blood glucose, Average (Week 2-5) (mmol/L)
Give a bare numeral; the unit mmol/L is implied.

{"molecule": "CCN(CC)CCOC(=O)c1cc(NC(C)=O)ccc1OC(C)=O.Cl [P-58]", "blood glucose, Average (Week 2-5) (mmol/L)": 5.8}
{"molecule": "CCN(CC)CCOC(=O)c1ccccc1OC(C)=O.Cl [P-1]", "blood glucose, Average (Week 2-5) (mmol/L)": 5.7}

Lookup: Form: Entry = CCN(CC)CCOC(=O)c1ccccc1OC(=O)c1ccccc1OC(C)=O.Cl [P-59] | System = normal SD rats (SLAC/SD) | blood glucose, Average (Week 2-5) = ____
Found: 5.8

---

tested on: SLAC/DB/DB obese mice; test: Blood glucose and blood lipid levels in DB/DB mice; assay type: in vivo; conditions: 30 mg/kg transdermally once per day
Property: blood glucose, Day 1; scope: individual compounds
Give a bare numeral; the unit mmol/L is implied.

# count of solved cases: 5
{"compound": "CC(=O)O.CCN(CC)CCOC(=O)c1ccccc1O [P-10, diethylaminoethyl salicylate.AcOH]", "unit.symbol": "mmol/L", "blood glucose, Day 1": 15.1}
{"compound": "CC(=O)Oc1ccc(-c2ccc(F)cc2F)cc1C(=O)O.CCN(CC)CCOC(=O)c1cc(-c2ccc(F)cc2F)ccc1OC(C)=O", "unit.symbol": "mmol/L", "blood glucose, Day 1": 14.5}
{"compound": "CCN(CC)CCOC(=O)c1ccccc1OC(=O)c1ccccc1O.Cl", "unit.symbol": "mmol/L", "blood glucose, Day 1": 14.1}
{"compound": "CCN(CC)CCOC(=O)c1cc(NC(C)=O)ccc1OC(C)=O.Cl", "unit.symbol": "mmol/L", "blood glucose, Day 1": 15.6}
{"compound": "CC(=O)Nc1ccc(OC(=O)c2ccccc2OC(=O)CCCN(C)C)cc1.Cl", "unit.symbol": "mmol/L", "blood glucose, Day 1": 14.2}

Now look at this one.
Lookup: Record request: blood glucose, Day 1 value, item CCN(CC)CCOC(=O)c1ccccc1OC(=O)c1ccccc1OC(C)=O.Cl
Found: 14.2
